Assay: self-splicing fitness, log relative to wild type (ln ratio); higher = more splicing; Tetrahymena group I intron in knt gene, E. coli kanamycin selection, DiMSum; sequences stand for … in CUCUCU…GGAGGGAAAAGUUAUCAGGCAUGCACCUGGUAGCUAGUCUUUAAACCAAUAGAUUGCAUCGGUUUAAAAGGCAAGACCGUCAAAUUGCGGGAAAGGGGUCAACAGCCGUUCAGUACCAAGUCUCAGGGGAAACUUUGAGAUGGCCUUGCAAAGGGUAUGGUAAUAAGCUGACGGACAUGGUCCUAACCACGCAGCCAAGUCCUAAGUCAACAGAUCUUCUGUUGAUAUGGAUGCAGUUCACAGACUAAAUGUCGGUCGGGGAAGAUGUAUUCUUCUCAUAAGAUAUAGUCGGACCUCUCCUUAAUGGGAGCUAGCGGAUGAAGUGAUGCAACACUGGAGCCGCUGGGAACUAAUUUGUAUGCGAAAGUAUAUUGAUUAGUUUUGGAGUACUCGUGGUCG;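 also: selection with 25 µg/mL kanamycin versus none on LB agar overnight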
Details: 30 °C
Grouping by measured self-splicing fitness (ln) is done with the following cut points: bucket 1: < -3; bucket 2: ≥ -3 and < -2; bucket 3: ≥ -2

UGUUAGCAAUAUUACGACUU
bucket 3
CAUAAGCAAUAUUACGAUCA
bucket 2
ACCUAGCAAUAUUACGGCCU
bucket 3
UACAAGCAAUAUUACGAUGU
bucket 1
AAGUAGCAAUAUUACGUAGC
bucket 1
AGUUAGCAAUAUUACGUUAG
bucket 1
AAAUAGCAAUAUUACGGGAA
bucket 1
AUUAAGCAAUAUUACGAUGC
bucket 2
GCGUAGCAAUAUUACGCCUG
bucket 1
CAAAAGCAAUAUUACGAACU
bucket 2
CCAAAGCAAUAUUACGUUUC
bucket 1
UAAAAGCAAUAUUACGACUA
bucket 3
UUCUAGCAAUAUUACGGAUA
bucket 3
ACCAAGCAAUAUUACGCCCU
bucket 3
GUUGAGCAAUAUUACGUAAC
bucket 2
AUGUAGCAAUAUUACGCUAU
bucket 1
ACCAAGCAAUAUUACGGUUU
bucket 1
AGUUAGCAAUAUUACGAUAG
bucket 1
UCGUAGCAAUAUUACGAGAG
bucket 1
GCGUAGCAAUAUUACGCAGU
bucket 1
CCUGAGCAAUAUUACGGCGU
bucket 1
UUGUAGCAAUAUUACGAUGG
bucket 3
UCCUAGCAAUAUUACGCCGC
bucket 1
UAGUAGCAAUAUUACGUAGC
bucket 1
CUCCAGCAAUAUUACGCAAC
bucket 1
UUGAAGCAAUAUUACGGUCU
bucket 3
GUGGAGCAAUAUUACGUGUA
bucket 2
UCUUAGCAAUAUUACGGUUU
bucket 1
UUGCAGCAAUAUUACGUAUG
bucket 3
GUAUAGCAAUAUUACGGGUA
bucket 2
GGGAAGCAAUAUUACGCGCG
bucket 3
AGAUAGCAAUAUUACGUAUG
bucket 2
UGUGAGCAAUAUUACGAGCG
bucket 3
UUAAAGCAAUAUUACGUCAU
bucket 3
UGGUAGCAAUAUUACGAGUG
bucket 3
UUUAAGCAAUAUUACGUUGC
bucket 1
CACGAGCAAUAUUACGGAUU
bucket 1
ACCGAGCAAUAUUACGCACA
bucket 2
GGAAAGCAAUAUUACGACCU
bucket 3
CCUUAGCAAUAUUACGGCGU
bucket 1
ACCUAGCAAUAUUACGUAUG
bucket 2
GGUGAGCAAUAUUACGUCAU
bucket 1
GUCAAGCAAUAUUACGGGCA
bucket 1
